Molecular target: NR2F6 (Homo sapiens, UniProt P10588)
Construct: expressed in transfected cells; also transient transfection
Sequence (P10588 1-404): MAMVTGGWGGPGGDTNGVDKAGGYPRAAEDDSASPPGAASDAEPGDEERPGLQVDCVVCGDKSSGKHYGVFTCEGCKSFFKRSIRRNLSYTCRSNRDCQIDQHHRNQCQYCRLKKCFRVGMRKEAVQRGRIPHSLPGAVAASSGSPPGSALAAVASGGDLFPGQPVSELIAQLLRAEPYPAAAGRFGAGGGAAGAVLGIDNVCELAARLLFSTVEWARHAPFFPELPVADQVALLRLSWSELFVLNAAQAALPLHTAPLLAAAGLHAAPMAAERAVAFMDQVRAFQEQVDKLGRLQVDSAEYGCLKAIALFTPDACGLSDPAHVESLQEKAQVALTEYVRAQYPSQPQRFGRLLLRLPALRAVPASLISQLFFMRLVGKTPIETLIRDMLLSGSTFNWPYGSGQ
Assay: NR2F6 agonist screening, Firefly signal cmpd/DMSO
Format: cell-based
Conditions: Table 12; repeat 1
Threshold-based label: Firefly, cmpd/DMSO repeat 1 under 20 gives true (1), Firefly, cmpd/DMSO repeat 1 not under 20 gives false (0).

Record excerpt, results attached:
Query: Lab note: Firefly, cmpd/DMSO repeat 1 threshold 20. Does this compound come in strictly under it? Cc1ccc2oc(=O)c(S(=O)(=O)c3cccc(C#N)c3)cc2c1
Result: false (0)

Query: Next compound: CCOc1cccc2cc(S(=O)(=O)c3cccc(Cl)c3)c(=O)oc12
Result: true (1)

Query: Another compound: Cc1ccc(NC(=O)c2ccc3oc(=O)c(S(=O)(=O)c4ccccc4)cc3c2)c(C)c1
Result: false (0)

Query: Quick one: CCOc1cccc2cc(S(=O)(=O)c3ccccc3F)c(=O)oc12
Result: true (1)

Query: Input O=c1oc2ccc(F)cc2cc1S(=O)(=O)c1ccc(Cl)cc1
Result: true (1)

Next:
Query: In the record for Cc1ccccc1NC(=O)c1ccc2oc(=O)c(S(=O)(=O)c3ccc(F)cc3)cc2c1 , is Firefly, cmpd/DMSO repeat 1 less than 20?
Result: false (0)

Query: Same thing, different compound: COC(=O)c1ccc2oc(=O)c(S(=O)(=O)c3ccccc3)cc2c1
Result: false (0)

Query: And what about the compound Cc1cc(S(=O)(=O)c2cc3ccccc3oc2=O)ccc1F ?
Result: true (1)

Query: Also need Cc1ccc(S(=O)(=O)c2cc3cc(C(=O)NCCc4ccccc4)ccc3oc2=O)cc1 , thanks.
Result: true (1)

----------
# reported Firefly F4, cmpd/DMSO (mean); entries follow
Molecular target: NR2F6 (Homo sapiens, UniProt P10588)
Construct: expressed in transfected cells; also transient transfection
Assay: NR2F6 agonist screening, Firefly signal cmpd/DMSO
Type: cell-based
Conditions: 2 uM; F4

Known results for molecules:
Query: Recorded Firefly F4, cmpd/DMSO (mean) of Cc1cc(S(=O)(=O)[C@H]2CS(=O)(=O)C[C@@H]2NCC2CCCO2)ccc1F (stereo partly shown) , please.
Result: 1.1

Query: Again, but for CC(C)N[C@H]1CS(=O)(=O)C[C@@H]1S(=O)(=O)c1ccc(Cl)cc1
Result: 1.6

Query: What would you report for O=S1(=O)C[C@H](NC2CCCC2)[C@@H](S(=O)(=O)c2ccc(F)cc2)C1 ?
Result: 1.6

Kindly consider the entry below.
Query: Value lookup for Firefly F4, cmpd/DMSO (mean); key = CC(=O)Nc1ccc(S(=O)(=O)[C@H]2CS(=O)(=O)C[C@@H]2NC2CC2)cc1
Result: 1.4

Data credit: patent US11377442B2
